target.entity: human ether-à-go-go-related gene (hERG) potassium channel (human, UniProt Q12809)
Sequence (Q12809 whole entry, looked up): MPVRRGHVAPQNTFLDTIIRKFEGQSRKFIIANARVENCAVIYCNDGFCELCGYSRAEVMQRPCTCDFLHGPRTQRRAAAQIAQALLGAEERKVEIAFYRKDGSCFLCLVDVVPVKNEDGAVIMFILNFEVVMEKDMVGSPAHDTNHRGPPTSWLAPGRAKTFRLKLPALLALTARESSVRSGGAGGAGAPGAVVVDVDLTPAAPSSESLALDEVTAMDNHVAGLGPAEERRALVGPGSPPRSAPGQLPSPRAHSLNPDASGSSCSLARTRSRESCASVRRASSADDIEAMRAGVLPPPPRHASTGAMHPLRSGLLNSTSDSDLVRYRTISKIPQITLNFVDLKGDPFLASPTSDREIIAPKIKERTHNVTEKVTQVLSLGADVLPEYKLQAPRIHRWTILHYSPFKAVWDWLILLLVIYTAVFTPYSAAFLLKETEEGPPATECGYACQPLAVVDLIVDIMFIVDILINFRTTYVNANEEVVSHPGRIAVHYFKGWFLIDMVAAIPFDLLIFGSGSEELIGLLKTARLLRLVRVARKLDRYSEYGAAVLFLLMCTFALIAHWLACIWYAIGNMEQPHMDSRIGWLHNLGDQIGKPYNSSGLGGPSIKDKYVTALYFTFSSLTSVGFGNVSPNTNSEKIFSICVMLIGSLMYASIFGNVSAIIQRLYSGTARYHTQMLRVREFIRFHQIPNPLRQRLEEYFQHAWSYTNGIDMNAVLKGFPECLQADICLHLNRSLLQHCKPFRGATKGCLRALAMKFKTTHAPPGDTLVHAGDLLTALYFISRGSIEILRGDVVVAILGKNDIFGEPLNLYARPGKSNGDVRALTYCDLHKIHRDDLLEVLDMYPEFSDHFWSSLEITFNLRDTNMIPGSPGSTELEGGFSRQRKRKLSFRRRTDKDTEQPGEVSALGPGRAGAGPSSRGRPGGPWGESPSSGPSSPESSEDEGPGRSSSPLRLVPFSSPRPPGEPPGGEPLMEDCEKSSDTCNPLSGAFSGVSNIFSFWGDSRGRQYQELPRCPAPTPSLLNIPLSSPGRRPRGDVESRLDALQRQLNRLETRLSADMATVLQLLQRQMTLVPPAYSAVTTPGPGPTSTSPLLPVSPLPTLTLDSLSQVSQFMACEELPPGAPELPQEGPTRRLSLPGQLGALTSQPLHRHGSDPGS
measurement.description: primary screen, population patch clamp on CHO cells stably expressing hERG; higher = less effect of the substance
Description: Briefly, Chinese hamster ovary (CHO) cells stably expressing the hERG channel were dislodged from tissue culture flasks and dispensed into PPC plates. […] Small molecule effects on hERG current density were quantified by […].
Hit rate of the full screen: of about 310,000 compounds, about 2,200 (0.71%) showed an effect of 50% or more. Effects have a minus sign here. The list comes from a sample in which strong results are over-represented; it also holds close analogues and randomly drawn compounds.
parameter: hERG current change (%, negative = inhibition) at 1uM (%)
Give bare numbers, in %.

Observe how each entry below is paired with its result.
Simply: N#Cc1ccc(OCC(=O)N2CCN(S(=O)(=O)c3cccs3)CC2)cc1 , human ether-à-go-go-related gene (hERG) potassium channel (human, UniProt Q12809), hERG current change (%, negative = inhibition) at 1uM = -54.7

Summary line: CCc1ccc2oc(-c3ccc(OC)cc3)cc(=[NH+]c3cccc(C(=O)O)c3)c2c1.F[B-](F)(F)F , human ether-à-go-go-related gene (hERG) potassium channel (human, UniProt Q12809), reported hERG current change (%, negative = inhibition) at 1uM = 4.56

The measured hERG current change (%, negative = inhibition) at 1uM that COc1cccc(CC2(CO)CCCN(Cc3cn(C)c4ccccc34)C2)c1 (stereo not shown) showed for human ether-à-go-go-related gene (hERG) potassium channel (human, UniProt Q12809) is -54.8

For the compound COc1cccc(CC2(CO)CCCN(Cc3ccc(C)s3)C2)c1 (stereo not shown) , the measured hERG current change (%, negative = inhibition) at 1uM on human ether-à-go-go-related gene (hERG) potassium channel (human, UniProt Q12809) was -10.6

human ether-à-go-go-related gene (hERG) potassium channel (human, UniProt Q12809) data for COc1ccccc1CNC(=O)C(CCSC)NS(=O)(=O)c1ccc2c(c1)oc(=O)n2C (stereo not shown) ; its hERG current change (%, negative = inhibition) at 1uM: 15.7

human ether-à-go-go-related gene (hERG) potassium channel (human, UniProt Q12809) data for O=C(OCC(=O)N(C1CCCCC1)C1CCCCC1)c1ccco1 ; its hERG current change (%, negative = inhibition) at 1uM: 9.71

Quick one: give me hERG current change (%, negative = inhibition) at 1uM for each item below, same order please.
1. O=C(CSc1nc(-c2cccs2)nc2ccccc12)NC1CCS(=O)(=O)C1 (stereo not shown)
2. O=C(Nc1cccc(C(=O)O)c1)/C(=C\c1ccc2c(c1)OCO2)NC(=O)c1ccccc1
3. CCOc1ccc(NC(=O)CN(C)C(=O)c2ccc(-c3ccc(C(C)=O)cc3)o2)cc1OCC

Outgoing:
17.3
3.01
10.5

I would be grateful if you could provide hERG current change (%, negative = inhibition) at 1uM for each of the following entries.
1. C=CCn1c(SCC(=O)N(CC)C2CCS(=O)(=O)C2)nc2ccccc2c1=O (stereo not shown)
2. COc1cc2c(cc1OC)C(=S)NC(C)(C)C2
3. CCN(C(=O)CSc1nc(-c2cccs2)nc2ccccc12)C1CCS(=O)(=O)C1 (stereo not shown)

Outgoing:
-81.6
14.8
-78.4

Give one value of hERG current change (%, negative = inhibition) at 1uM per listed compound.
1. C=CCn1c(SCC(=O)N(CC)C2CCS(=O)(=O)C2)nc2cc(C(=O)O)ccc2c1=O (stereo not shown)
2. CC1=CCC(C(=O)O)C(C(=O)Nc2cccnc2)C1 (stereo not shown)
3. COc1cccc(CC2(CO)CCCN(Cc3ccccc3-c3ccco3)C2)c1 (stereo not shown)
4. O=c1cc(-c2ccccc2)oc2ccccc12
5. COCCNC(=O)NC(=O)COC(=O)C1(c2ccc(Cl)cc2)CC1
6. COCCn1c(SCC(=O)NC2(C#N)CCCCC2)nc2ccccc2c1=O
7. Cn1c(Nc2ccccc2)nc2ccccc21

Outgoing:
16.4
5.97
-55.6
13
6.06
-12.8
8.25

Hi team, please reply with hERG current change (%, negative = inhibition) at 1uM for each item in this list.
1. Cc1cc(C)nc(/N=C(\N)Nc2ccc(OCCC(C)C)cc2)n1
2. CCN(C(=O)CSc1nc2ccccc2c(=O)n1Cc1ccc(C)cc1)C1CCS(=O)(=O)C1 (stereo not shown)
3. O=C(Cc1ccccc1)NC1CCN(C(=O)NCc2ccccc2)CC1
4. CC(O)C[NH+]=c1cc(-c2ccccc2)oc2ccc(Cl)cc12.F[B-](F)(F)F (stereo not shown)
5. COc1cccc(CC2(CO)CCCN(Cc3ccc(CN4CCCCC4)s3)C2)c1 (stereo not shown)
6. Cc1cc(C)nc(/N=C(\N)Nc2ccc(OCc3ccccc3)cc2)n1

Outgoing:
[-55.9, -71.4, -8.61, -57, 0.717, -28.8]

Provide reported hERG current change (%, negative = inhibition) at 1uM for each item, in the same order as listed.
1. COC(=O)c1ccc(NC(=O)C2C3CCC(C3)C2C(=O)O)cc1 (stereo not shown)
2. O=C(Oc1ccccc1O)c1cccc2ccccc12

Outgoing:
1: 3.27; 2: 6.76

For each entry beneath this line, provide reported hERG current change (%, negative = inhibition) at 1uM.
1. NC(=O)NCCCC(NC(=O)c1ccc(C#CC2(O)CCCCC2)cc1)C(=O)O (stereo not shown)
2. CCN(C(=O)CSc1nc2ccccc2c(=O)n1-c1ccc(C)cc1)C1CCS(=O)(=O)C1 (stereo not shown)
3. CCCn1nc(C(=O)Nc2ccc(N3CCOCC3)cc2)c2ccccc2c1=O

Outgoing:
8.16
1.16
1.6

Dear colleague, could you please provide hERG current change (%, negative = inhibition) at 1uM for the compounds listed below?
1. COc1cccc(CC2(CO)CCCN(Cc3ccccc3Cl)C2)c1 (stereo not shown)
2. CC(C)(C)C(=O)N1NC(=Nc2ccccc2)SC1(C)C
3. O=C(COc1ccccc1)N1CCN(S(=O)(=O)c2cccs2)CC1
4. CC1(C)CC(=O)C(C2c3ccccc3S(=O)(=O)c3ccccc32)C(=O)C1
5. COC(=O)C1CC(Cl)CN1c1ncc(C(F)(F)F)cc1Cl (stereo not shown)

Outgoing:
[-12.5, 7.38, -7.49, 16.3, 15.5]

Count: 5. Required value per item: hERG current change (%, negative = inhibition) at 1uM.
1. O=Cc1ccc(-c2ccc(C(=O)O)cc2)o1
2. Cc1ccc(Cn2c(SCC(=O)N(C)C3CCS(=O)(=O)C3)nc3ccccc3c2=O)cc1 (stereo not shown)
3. Cc1ccc2nc(-c3ccccn3)oc2c1
4. COc1ccccc1OCC(=O)NCCS(=O)(=O)N1CCN(c2ccc(F)cc2)CC1
5. CC(C)N(C)C1CCN(C(=O)Nc2ccc(Cl)c(Cl)c2)CC1

Outgoing:
1: -2.38; 2: -41.9; 3: 12.6; 4: -3.49; 5: -19.5
